# test.target: SADS FP peptide (SADS)
# experiment.summary: peptide ELISA
reported.metric: EC50
The reply must contain the numeric value and, after it, the unit.

Some binders with recorded EC50:
| binder | reported.metric | value.observed |
| --- | --- | --- |
| fp.006 (antibody, V domains shown) VH: VQLVESGGGVVQPGGSLRLSCAASGFNFNNYALHWVRQAPGKGLEWVAIISYEARNKKYGVSVMGRFSISRDNSKSIMYLEMNSLRVEDTGVYYCARDLFLSDYDRSGYDPTRGGFDHWGQGTLVTVSS VL: EIVMTQSPATLSVSPGERATLSCRASQSVSSSLAWYQHRFGQAPRLLISGASTRATGIPGRFSGSGSGTEFTLTISSLQSEDVAVYYCQQYGDWPLVTFGGGTKVEIK | EC50 | 0.0154 mg/L |
| fp.010 (antibody, V domains shown) VH: EVQLLESGGGLVQPGGSLRLSCAASGFTFSTYAMNWVRQAPGKGLEWVSAISSSGLSTQYADSVRGRFTISRDTSKNTLYLHMNSLRAGDTAVYYCAKVEYSGYDPRGPFDSWGQGTLVTVSS VL: DIQMTQSPSTLSASVGDRVTITCRASQSISGWLAWYQQKPGRAPKLLIYKASSLERGVPSRFSGSGSGTEFTLTISSLQPDDFATYYCQEYSSYPLCTFGQGTKLEIK | EC50 | 0.0644 mg/L |

Task: Give recorded EC50. fp.005 (antibody, V domains shown) VH: VQLVESGGGVVQPGNSLRLSCAASGFRFNNYAMHWVRQAPGKGLEWVAIISYEARNEKYADSVKGRFSISRDNAKNTLYLQMNSLRADDTGVYYCARDLFLSDYDTSGYDRTRGGFDYWGQGALVTVSS VL: EIVMTQSPATLSVSPGERATLSCRASQSVSNGLAWYQHRFGQPPRLLIYGASTRATGIPTRFSGSGSGTEFTLTISSLQSEDFAVYYCQQYDDWPLITFGGGTKVEIK
Output: 0.0252 mg/L
